Listing of entries alongside the reported koff.
Biological target: T1, human soluble urokinase plasminogen activator receptor (suPAR) (human, UniProt Q03405 23-303, limits assumed)
T1 construct: Target antigen of the scFv off-rate screen; also called hsuPAR; human suPAR
T1 sequence (Q03405 23-303 limits assumed): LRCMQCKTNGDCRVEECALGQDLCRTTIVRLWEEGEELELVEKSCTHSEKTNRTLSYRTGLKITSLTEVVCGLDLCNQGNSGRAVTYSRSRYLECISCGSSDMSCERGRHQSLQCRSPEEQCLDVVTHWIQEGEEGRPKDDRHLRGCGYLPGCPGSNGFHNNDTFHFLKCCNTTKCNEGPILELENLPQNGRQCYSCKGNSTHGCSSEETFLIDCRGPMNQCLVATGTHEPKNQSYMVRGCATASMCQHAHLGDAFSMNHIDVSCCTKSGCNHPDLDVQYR
Experiment: BLI (Octet) off-rate screen of scFv clones

| Binder | Measure unit | koff |
| --- | --- | --- |
| suPAR_DB06_F08 (scFv, V domains shown) VH: QVQLVQSGAEVKKPGASVKVSCKASGYTFTGNYVHWVRQAPGQGLEWMGWIDHSNGNTIYDQKFQGRVTMTRDTSTSTVYMELSSLRSEDTAVYYCARGYDVDWFVYWGQGTLVTVSS VL: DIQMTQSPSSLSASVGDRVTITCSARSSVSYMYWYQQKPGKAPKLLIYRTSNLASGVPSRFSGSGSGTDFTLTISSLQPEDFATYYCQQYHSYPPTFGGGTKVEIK | s⁻¹ | 0.00174 |
| suPAR_DB06_D06 (scFv, V domains shown) VH: QVQLVQSGAEVKKPGASVKVSCKASGYTFTNYYMHWVRQAPGQGLEWMGWIDPENGNTIYAQKFQGRVTMTRDTSTSTVYMELSSLRSEDTAVYYCARGYDVDWFVYWGQGTLVTVSS VL: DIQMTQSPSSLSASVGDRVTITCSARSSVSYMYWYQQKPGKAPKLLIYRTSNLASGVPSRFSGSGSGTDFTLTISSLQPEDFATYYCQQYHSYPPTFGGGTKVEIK | s⁻¹ | 0.00406 |
| suPAR_DB06_F09 (scFv, V domains shown) VH: QVQLVQSGAEVKKPGASVKVSCKASGYTFTTYYMHWVRQAPGQGLEWMGWIDPEGGNTIYDQKFQGRVTMTRDTSTSTVYMELSSLRSEDTAVYYCARGYDVDWFVYWGQGTLVTVSS VL: DIQMTQSPSSLSASVGDRVTITCSASQSVSYMYWYQQKPGKAPKLLIYRTSNLASGVPSRFSGSGSGTDFTLTISSLQPEDFATYYCQQYHSYPPTFGGGTKVEIK | s⁻¹ | 0.00302 |
